Listing of entries alongside the reported EC50.
TESTED ON: recombinant human AMPK complex 1 (containing α1β1γ1) (Homo sapiens, UniProt Q13131+Q9Y478)
Sequence (Q13131 whole entry): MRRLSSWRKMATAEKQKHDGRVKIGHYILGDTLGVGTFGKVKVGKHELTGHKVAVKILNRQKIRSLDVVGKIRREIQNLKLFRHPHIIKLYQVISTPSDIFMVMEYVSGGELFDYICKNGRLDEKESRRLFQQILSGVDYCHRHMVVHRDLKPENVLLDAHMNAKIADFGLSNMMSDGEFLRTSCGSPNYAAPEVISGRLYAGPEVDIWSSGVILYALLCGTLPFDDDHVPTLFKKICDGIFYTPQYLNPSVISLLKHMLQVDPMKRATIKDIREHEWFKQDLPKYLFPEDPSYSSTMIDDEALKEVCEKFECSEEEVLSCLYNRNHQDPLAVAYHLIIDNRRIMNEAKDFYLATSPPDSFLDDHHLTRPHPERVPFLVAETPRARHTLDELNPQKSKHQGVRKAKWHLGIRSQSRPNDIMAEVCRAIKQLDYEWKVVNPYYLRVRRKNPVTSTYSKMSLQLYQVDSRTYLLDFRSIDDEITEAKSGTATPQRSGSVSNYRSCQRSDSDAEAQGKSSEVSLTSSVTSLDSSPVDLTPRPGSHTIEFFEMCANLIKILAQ
Sequence (Q9Y478 whole entry): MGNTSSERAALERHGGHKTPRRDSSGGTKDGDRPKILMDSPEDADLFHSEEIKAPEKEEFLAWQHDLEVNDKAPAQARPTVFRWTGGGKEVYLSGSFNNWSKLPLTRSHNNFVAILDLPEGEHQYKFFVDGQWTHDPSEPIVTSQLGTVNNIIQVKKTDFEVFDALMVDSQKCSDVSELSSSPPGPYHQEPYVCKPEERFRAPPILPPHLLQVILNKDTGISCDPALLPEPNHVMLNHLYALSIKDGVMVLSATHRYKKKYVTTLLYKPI
Sequence (P54619 whole entry partner): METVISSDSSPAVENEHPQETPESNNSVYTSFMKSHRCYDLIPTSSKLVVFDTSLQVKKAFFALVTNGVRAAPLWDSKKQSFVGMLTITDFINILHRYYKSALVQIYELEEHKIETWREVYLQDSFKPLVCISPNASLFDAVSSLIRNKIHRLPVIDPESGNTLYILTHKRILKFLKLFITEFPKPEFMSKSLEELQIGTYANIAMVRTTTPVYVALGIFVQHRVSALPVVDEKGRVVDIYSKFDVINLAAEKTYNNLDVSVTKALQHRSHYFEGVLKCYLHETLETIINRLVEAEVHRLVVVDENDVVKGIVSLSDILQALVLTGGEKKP
PROTOCOL DESCRIPTION: AMPKSAMSF in vitro AMPK activation assay
DETAILS: recombinant human AMPK complex 1 (α1β1γ1); inflection point reflecting 50% of the maximum activation
Could you write the number and then its unit?

Below: 3 compounds and their reported EC50.
• O=C(O)[C@H]1CC[C@H](Oc2nc3nc(-c4ccc(N5CCCC5)cc4)c(Cl)cc3[nH]2)CC1 = 24 nM
• CS(=O)(=O)c1ccc(-c2ccc(-c3nc4nc(O[C@H]5CC[C@H](C(=O)O)CC5)[nH]c4cc3Cl)cc2)cc1 = 5 nM
• OC[C@H]1OC[C@H](Oc2nc3nc(-c4ccc(-c5ccccc5)cc4)c(Cl)cc3[nH]2)C[C@@H]1O = 38 nM

Qu. I'd like to know its EC50. The compound in question is `O[C@@H]1CO[C@H]2[C@@H]1OC[C@H]2Oc1nc2nc(-c3ccc(-n4cc5c(n4)CNC5)cc3)c(Cl)cc2[nH]1`
Ans. 18 nM

----------
TESTED ON: recombinant human AMPK complex 1 (containing α1β1γ1) (Homo sapiens, UniProt Q13131+Q9Y478)
PROTOCOL DESCRIPTION: AMPKSAMSF in vitro AMPK activation assay
DETAILS: recombinant human AMPK complex 1 (α1β1γ1); inflection point reflecting 50% of the maximum activation
OBSERVABLE: EC50 (nM)
Return type: number; implicit unit nM.

- O[C@@H]1CO[C@H]2[C@@H]1OC[C@H]2Oc1nc2nc(-c3ccc(-c4ccc(-n5cncn5)cc4)cc3)c(Cl)cc2[nH]1 [Example 180]: 0.3

Query compound follows.
Qu. I'd like to know its EC50. The compound in question is CC(C)(O)Cc1cnn(-c2ccc(-c3ccc(-c4nc5nc(O[C@@H]6CO[C@H]7[C@@H]6OC[C@H]7O)[nH]c5cc4Cl)cc3)cc2)c1 [Example 190]
Ans. 1

----------
Listing of entries alongside the reported Emax.
TESTED ON: recombinant human AMPK complex 1 (containing α1β1γ1) (Homo sapiens, UniProt Q13131+Q9Y478)
Construct: made in house; host or cells: Spodoptera frugiperda Sf21 cells, baculovirus (pBacPak9 clones, triple infection)
PROTOCOL DESCRIPTION: AMPKSAMSF in vitro AMPK activation assay
Assay type: biochemical
DETAILS: recombinant human AMPK complex 1 (α1β1γ1); 10-point titration; read-out: % Maximum AMP Activation of human AMPK Complex 1
Return type: number; implicit unit %.

Qu. // lookup Emax | system=recombinant human AMPK complex 1 (containing α1β1γ1) (Homo sapiens, UniProt Q13131+Q9Y478) | key= `CC(C)(F)Cn1cc2c(n1)CN(c1ccc(-c3nc4nc(O[C@@H]5CO[C@H]6[C@@H]5OC[C@H]6O)[nH]c4cc3Cl)cc1)C2`
Ans. 249

Qu. Consider next the compound `CC(C)(O)Cn1cc2c(n1)CN(c1ccc(-c3nc4nc(O[C@@H]5CO[C@H]6[C@@H]5OC[C@H]6O)[nH]c4cc3Cl)cc1)C2` in the same way.
Ans. 252

Qu. Consider next the compound `CC(C)(O)Cc1cnn(-c2ccc(-c3ccc(-c4nc5nc(O[C@@H]6CO[C@H]7[C@@H]6OC[C@H]7O)[nH]c5cc4Cl)cc3)nc2)c1` in the same way.
Ans. 372

Qu. Consider next the compound `O=C(O)[C@H]1CC[C@H](Oc2nc3nc(-c4ccc(-c5ccccc5)cc4)c(Cl)cc3[nH]2)CC1` in the same way.
Ans. 798

Qu. Consider next the compound `O=S(=O)(NC1CC1)n1cc2c(n1)CN(c1ccc(-c3nc4nc(O[C@@H]5CO[C@H]6[C@@H]5OC[C@H]6O)[nH]c4cc3Cl)cc1)C2` in the same way.
Ans. 223

Qu. Consider next the compound `Cc1ccc(Oc2nc3nc(-c4ccc(N5CCCC5)cc4)c(Cl)cc3[nH]2)cc1C(=O)O` in the same way.
Ans. 681

----------
TESTED ON: recombinant human AMPK complex 1 (containing α1β1γ1) (Homo sapiens, UniProt Q13131+Q9Y478)
PROTOCOL DESCRIPTION: AMPKSAMSF in vitro AMPK activation assay
DETAILS: recombinant human AMPK complex 1 (α1β1γ1); inflection point reflecting 50% of the maximum activation
OBSERVABLE: pEC50
Quick note: pEC50 values are minus log10 of concentrations in mol/L.

Below: 3 compounds and their reported pEC50.
- O[C@@H]1CO[C@H]2[C@@H]1OC[C@H]2Oc1nc2nc(-c3ccc(-c4ccc(-n5cccn5)cc4)cc3)c(Cl)cc2[nH]1: 9.52
- O[C@@H]1CO[C@@H]2C(Oc3nc4nc(-c5ccc(-c6ccc(-c7nnn[nH]7)cc6)cc5)c(Cl)cc4[nH]3)CO[C@H]12 (stereo partly drawn): 9.30
- O=C(O)[C@H]1CC[C@H](Oc2nc3nc(-c4ccc(-c5ccccc5)cc4)c(Cl)cc3[nH]2)CC1: 8.15

Qu. I'd like to know its pEC50. The compound in question is `O[C@@H]1CO[C@H]2[C@@H]1OC[C@H]2Oc1nc2nc(-c3ccc(-c4ccc(-n5cccn5)nc4)cc3)c(Cl)cc2[nH]1`
Ans. 9.05

Qu. Consider next the compound `O[C@@H]1CO[C@H]2[C@@H]1OC[C@H]2Oc1nc2nc(-c3ccc(-c4ccccc4)cc3)c(Cl)cc2[nH]1` in the same way.
Ans. 8.40

Qu. Consider next the compound `CC(C)(O)[C@H]1C[C@@H](Oc2nc3nc(-c4ccc(-c5ccc(S(C)(=O)=O)cc5)cc4)c(Cl)cc3[nH]2)C1` in the same way.
Ans. 7.33

----------
TESTED ON: recombinant human AMPK complex 1 (containing α1β1γ1) (Homo sapiens, UniProt Q13131+Q9Y478)
PROTOCOL DESCRIPTION: AMPKSAMSF in vitro AMPK activation assay
DETAILS: recombinant human AMPK complex 1 (α1β1γ1); inflection point reflecting 50% of the maximum activation
OBSERVABLE: EC50 (nM)
Return type: number; implicit unit nM.

Qu. // lookup EC50 | system=recombinant human AMPK complex 1 (containing α1β1γ1) (Homo sapiens, UniProt Q13131+Q9Y478) | key= Cc1ccc(Oc2nc3nc(-c4ccc(N5CCCC5)cc4)c(Cl)cc3[nH]2)cc1C(=O)O [Example 3]
Ans. 1

Qu. Consider next the compound CC(C)(O)Cc1cnn(-c2ccc(-c3ccc(-c4nc5nc(O[C@@H]6CO[C@H]7[C@@H]6OC[C@H]7O)[nH]c5cc4Cl)cc3)nc2)c1 [Example 202] in the same way.
Ans. 1

Qu. Consider next the compound O[C@@H]1CO[C@H]2[C@@H]1OC[C@H]2Oc1nc2nc(-c3ccc(C#CC4CCNCC4)cc3)c(Cl)cc2[nH]1 [Example 214] in the same way.
Ans. 6

----------
Listing of entries alongside the reported pEC50.
TESTED ON: recombinant human AMPK complex 1 (containing α1β1γ1) (Homo sapiens, UniProt Q13131+Q9Y478)
PROTOCOL DESCRIPTION: AMPKSAMSF in vitro AMPK activation assay
DETAILS: recombinant human AMPK complex 1 (α1β1γ1); inflection point reflecting 50% of the maximum activation
Quick note: pEC50 values are minus log10 of concentrations in mol/L.

Below: 3 molecules and their reported pEC50.
- O=S(=O)(NC1CC1)n1cc2c(n1)CN(c1ccc(-c3nc4nc(O[C@@H]5CO[C@H]6[C@@H]5OC[C@H]6O)[nH]c4cc3Cl)cc1)C2: 9.00
- CC(C)(O)Cn1cc2c(n1)CN(c1ccc(-c3nc4nc(O[C@@H]5CO[C@H]6[C@@H]5OC[C@H]6O)[nH]c4cc3Cl)cc1)C2: 9.00
- CC(C)(F)Cn1cc2c(n1)CN(c1ccc(-c3nc4nc(O[C@@H]5CO[C@H]6[C@@H]5OC[C@H]6O)[nH]c4cc3Cl)cc1)C2: 8.70

Qu. I'd like to know its pEC50. The molecule in question is `OCC1(CO)CC(Oc2nc3nc(-c4ccc(-c5ccccc5)cc4)c(Cl)cc3[nH]2)C1`
Ans. 7.55

----------
Listing of entries alongside the reported Emax.
TESTED ON: recombinant human AMPK complex 1 (containing α1β1γ1) (Homo sapiens, UniProt Q13131+Q9Y478)
Construct: made in house; host or cells: Spodoptera frugiperda Sf21 cells, baculovirus (pBacPak9 clones, triple infection)
PROTOCOL DESCRIPTION: AMPKSAMSF in vitro AMPK activation assay
Assay type: biochemical
DETAILS: recombinant human AMPK complex 1 (α1β1γ1); 10-point titration; read-out: % Maximum AMP Activation of human AMPK Complex 1

Below: 8 compounds and their reported Emax.
- CS(=O)(=O)c1ccc(-c2ccc(-c3nc4nc(O[C@H]5CC[C@H](C(=O)O)CC5)[nH]c4cc3Cl)cc2)cc1: 661%
- CC(C)(O)[C@H]1C[C@@H](Oc2nc3nc(-c4ccc(-c5ccc(S(C)(=O)=O)cc5)cc4)c(Cl)cc3[nH]2)C1: 440%
- O[C@@H]1CO[C@H]2[C@@H]1OC[C@H]2Oc1nc2nc(-c3ccc(-c4ccc(-n5cccn5)cc4)cc3)c(Cl)cc2[nH]1: 362%
- O[C@@H]1CO[C@@H]2C(Oc3nc4nc(-c5ccc(-c6ccc(-c7nnn[nH]7)cc6)cc5)c(Cl)cc4[nH]3)CO[C@H]12 (stereo partly shown): 289%
- O=C(O)C1CCC(Oc2nc3nc(-c4ccc(N5CCCC5)cc4)c(Cl)cc3[nH]2)CC1 (stereo not shown): 852%
- O[C@@H]1CO[C@H]2[C@@H]1OC[C@H]2Oc1nc2nc(-c3ccc(-c4ccc(-n5cncn5)cc4)cc3)c(Cl)cc2[nH]1: 350%
- O[C@@H]1CO[C@H]2[C@@H]1OC[C@H]2Oc1nc2nc(-c3ccc(-c4ccccc4)cc3)c(Cl)cc2[nH]1: 373%
- O[C@@H]1CO[C@H]2[C@@H]1OC[C@H]2Oc1nc2nc(-c3ccc(-c4ccc(-n5cccn5)nc4)cc3)c(Cl)cc2[nH]1: 292%

Query compound follows.
Qu. I'd like to know its Emax. The compound in question is `O[C@@H]1CO[C@H]2[C@@H]1OC[C@H]2Oc1nc2nc(-c3ccc(C#CC4CCNCC4)cc3)c(Cl)cc2[nH]1`
Ans. 386%
